target: Cytochrome P450 2C19 (Homo sapiens); experiment: Percent inhibition of formation of metabolic intermediate complex between Cytochrome P450 and compound 1a (30 uM) on extent, on pre-incubation with compound concentration of 15 uM; assay type: ADME, Oryctolagus cuniculus; settings: rabbit, probe compound 1a (30 uM)
experimentalEndpoint: inhibition at 15 µM
Output should be the measured figure followed by the unit it is expressed in.

Query string: For `COc1cc(C[C@@H](C)NO)c(OC)cc1C.COc1cc(C[C@H](C)NO)c(OC)cc1C` , what is its reported inhibition at 15 µM?
Result string: 100%

====

molecular target: Cytochrome P450 2C19 (Homo sapiens, UniProt P33261); experiment: Percent inhibition of formation of metabolic intermediate complex between Cytochrome P450 and compound 1a (30 uM) on extent, on pre-incubation with compound concentration of 0 uM; type: ADME, Oryctolagus cuniculus; settings: rabbit, probe compound 1a (30 uM)
Sequence (P33261 whole entry): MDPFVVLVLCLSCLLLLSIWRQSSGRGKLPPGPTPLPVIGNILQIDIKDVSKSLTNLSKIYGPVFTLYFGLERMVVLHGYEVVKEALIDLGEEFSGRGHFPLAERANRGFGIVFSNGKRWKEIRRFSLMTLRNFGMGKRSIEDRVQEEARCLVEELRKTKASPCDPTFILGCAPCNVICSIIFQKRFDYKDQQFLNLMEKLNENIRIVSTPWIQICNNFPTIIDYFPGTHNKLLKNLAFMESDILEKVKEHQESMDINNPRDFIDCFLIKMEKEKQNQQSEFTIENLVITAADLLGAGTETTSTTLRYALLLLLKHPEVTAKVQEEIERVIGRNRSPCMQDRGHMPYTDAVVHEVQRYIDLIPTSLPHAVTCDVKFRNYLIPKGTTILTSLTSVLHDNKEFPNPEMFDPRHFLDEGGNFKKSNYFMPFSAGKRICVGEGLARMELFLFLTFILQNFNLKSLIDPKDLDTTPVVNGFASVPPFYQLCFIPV
experimentalEndpoint: inhibition at 0 uM (%)
Only the number, expressed in %, is required.

Query string: # query: inhibition at 0 uM of entry `COc1cc(C[C@@H](C)NO)c(OC)cc1C.COc1cc(C[C@H](C)NO)c(OC)cc1C`
Result string: 0
